Answer each item with its documented GI50.
- System: MDA-MB-231 breast
- protocol: NCI tumour cell line growth inhibition, 48 h

compound: O=C1C=CC=C[C@@H]2C(C3OCCO3)CC[C@H]12.[C-]#[O+].[C-]#[O+].[C-]#[O+].[Fe] (stereo partly drawn)
test.target: MDA-MB-231 breast
assay.metric: GI50
result: > 100 µM
--
compound: O=c1oc2ccc(Br)cc2c(=O)n1-c1ccc(Br)cc1F
test.target: MDA-MB-231 breast
assay.metric: GI50
result: 0.551 µM

Now, please, on to the next compound.
Problem: May I ask what GI50 has been recorded for C/C(=C1\SC(=NCc2cccs2)NC1=O)c1ccc2ncccc2c1 ?
Solution: 7.24 µM

---

- System: RPMI-8226 leukemia
- protocol: NCI tumour cell line growth inhibition, 48 h; in the data active means GI50 below about 0.43 µM; inactive means the rest
Pick from active, inactive when you respond.

These recorded examples may help you get a feel for the data.
compound: COc1ccc(NC(=O)Nc2ccccc2CNc2nc(Nc3ccc(OCCN4CCCC4)cc3)ncc2Cl)cc1
label: inactive

compound: Clc1ccc(CNc2ccc3nc(CCC4CCCCC4)[nH]c3c2)cc1
label: inactive

compound: O=C(NCCCN1CCC(N2CCCCC2)CC1)C1=Cc2cc(Br)ccc2OC1
label: inactive

compound: COc1cccc2c1C(=O)c1c(O)c3c(c(O)c1C2=O)C[C@@](O)(C(C)=O)C[C@@H]3O[C@H]1C[C@H](N)[C@H](O)[C@H](C)O1
label: active

compound: O=C1Nc2ccccc2/C1=C\c1c[nH]c2ccc(Br)cc12
label: inactive

Problem: // outcome(item) with item = Oc1c(I)cc(I)cc1CNCCN(Cc1ccccn1)Cc1ccccn1
Solution: inactive

Problem: Please let me know the test result on file for Clc1ccc(Nc2nnc(CNc3ccccc3)c3ccccc23)cc1 .
Solution: inactive

---

Please provide measured TGI for the entries that follow.
- System: HCC-2998 colon
- protocol: NCI tumour cell line growth inhibition, 48 h

molecule: Nc1ccc(Cc2ccc(N=Cc3ccc(OCc4cccc(COc5ccc(C=Nc6ccc(Cc7ccc(N)cc7)cc6)cc5)n4)cc3)cc2)cc1
assay.metric: TGI
result: > 100 µM
--
molecule: O=C(/C=C/c1ccc(Cl)cc1)c1ccc(Cl)c(Cl)c1
assay.metric: TGI
result: > 100 µM
--
molecule: CC1=CC(O)(c2ccccc2)C(N2CCOCC2)N1O (stereo not given)
assay.metric: TGI
result: > 100 µM
--
molecule: N[C@H]1C[C@@H]1c1ccc(-c2cccc(O)c2)cc1
assay.metric: TGI
result: 67.2 µM

Lab note: next molecule to report on.
Problem: # query: TGI of entry CC(=O)OCC1OC(n2c3c(cc(C#N)c2=O)CCCCCC3)C(OC(C)=O)C(OC(C)=O)C1OC(C)=O (stereo not given)
Solution: > 100 µM

---

- Test system: HS 578T breast
- protocol: NCI tumour cell line growth inhibition, 48 h
assay.metric: TGI

Guide cases for TGI, answers given:
molecule: O=C(NCCCN1CCC(N2CCCCC2)CC1)C1=Cc2cc(Br)ccc2OC1
test.target: HS 578T breast
TGI: 33.4 µM
--
molecule: C=C1c2nc3ccccc3n2C=C(c2ccc(OC)cc2)N1c1ccccc1
test.target: HS 578T breast
TGI: > 96.6 µM
--
molecule: N#Cc1c(N2CCCC2)ncn(-c2ccccc2)c1=S
test.target: HS 578T breast
TGI: > 100 µM
--
molecule: COc1c2c(cc3occ(-c4ccc(CC=C(C)C)cc4)c(=O)c13)OC(C)(C)C=C2
test.target: HS 578T breast
TGI: > 100 µM
--
molecule: CC(C)/C=N\N1C(N)=C(C#N)C(C#N)(C#N)C1C(C)C (stereo unspecified)
test.target: HS 578T breast
TGI: > 100 µM
--
molecule: O=C1Nc2ccccc2/C1=C\c1c[nH]c2ccc(Br)cc12
test.target: HS 578T breast
TGI: 8.33 µM
--
molecule: CC(C)c1cc2c(c(O)c1O)[C@@]1(C)CCCC(C)(C)C1=C(O)C2
test.target: HS 578T breast
TGI: 13.4 µM
--
molecule: O=c1oc2ccc(Br)cc2c(=O)n1-c1ccc(Br)cc1F
test.target: HS 578T breast
TGI: 3.79 µM

Okay, here is my list. What is TGI for each of these?
1. O=[As]O
2. N#C/C(=C/NC(=S)NCc1ccccc1)C(N)=O
3. CC(=O)OCC1OC(n2c3c(cc(C#N)c2=O)CCCCCC3)C(OC(C)=O)C(OC(C)=O)C1OC(C)=O (stereo unspecified)

Solution:
1. > 100 µM
2. > 100 µM
3. > 100 µM
